assay: solvent given as SMILES; conditions: in C1CCOC1
The label is y for emission maximum below 500 nm and n for emission maximum equal to or exceeding 500 nm.

| MOL | DISCRETE_LABEL |
| --- | --- |
| O=C1C2=C(O[B-](F)(F)[n+]3c2ccc2ccccc23)c2cccc3c(N4CCOCC4)ccc1c23 | n |
| CCn1c2ccccc2c2cc(/C=C/c3cccc(/C=C/c4ccc5c(c4)c4ccccc4n5CC)[n+]3CCCS(=O)(=O)[O-])ccc21 | n |
| CC(C)(C)c1ccc(-c2c(-c3ccc(-n4c5ccccc5c5ccccc54)cc3)c(C#N)c(-c3ccc(-n4c5ccccc5c5ccccc54)cc3)c(-c3ccc(C(C)(C)C)cc3)c2-c2ccc(C(C)(C)C)cc2)cc1 | y |
| CC1(C)CC(/C=C/c2ccc(-n3c4ccccc4c4ccccc43)cc2)=CC(=C(C#N)C#N)C1 | n |
| N#Cc1cc2ccccc2oc1=N | y |
| Fc1ccc(N(c2ccc(F)cc2)c2ccc3c4cccc5c(N(c6ccc(F)cc6)c6ccc(F)cc6)ccc(c6cccc2c63)c54)cc1 | n |
| CCn1c2ccccc2c2cc(-c3cc(-c4ccc5c(c4)c4ccccc4n5CC)nc(SC)n3)ccc21 | y |
| CN(C)c1ccc(C(=O)Nc2ccc([N+](=O)[O-])cc2)cc1 | y |
| N#Cc1c(N2CCCCC2)cc(-c2cccc3ccccc23)c2c1C(=O)c1ccccc1-2 | y |
| CN(C)c1ccc(C2=Nc3sc4ccccc4[n+]3[B-](F)(F)O2)cc1 | y |
| COc1ccc2c3c(cccc13)C(=O)N(C)C2=O | y |
| COc1ccc(-c2nc3c(c4c2-c2ccccc2CC4)-c2ccccc2CC3)cc1 | y |
| C1=Cc2ccccc2C(=Cc2ccc(C=C3c4ccccc4C=Cc4ccccc43)cc2)c2ccccc21 | y |
| CCCCN1\C(=C/C=C/C=C/C2=[N+](CCCC)c3ccc4ccccc4c3C2(C)C)C(C)(C)c2c1ccc1ccccc21 | n |

###

assay: solvent given as SMILES; conditions: in ClC(Cl)Cl
Below, each entry is listed alongside its reported emission maximum.

| COMPOUND | UNIT_OF_MEASUREMENT | emission maximum |
| --- | --- | --- |
| CC1=[N+]2C(=C(c3ccc(N(C)C)cc3)c3ccc(C)n3[B-]2(F)F)C=C1 | nm | 615 |
| CCN(CC)c1ccc2cc(-c3ccc(-c4ccc5ccc6c(-c7ccc(-c8cc9ccc(N(CC)CC)cc9oc8=O)cc7)ccc7ccc4c5c76)cc3)c(=O)oc2c1 | nm | 475 |
| c1ccc2cc(-n3c4ccccc4c4ccccc43)ccc2c1 | nm | 376 |
| F[B-]1(F)n2c(cc3oc(-c4ccccc4)cc32)C=C2C=c3oc(-c4ccccc4)cc3=[N+]21 | nm | 661 |
| CCCCC1(CCCC)c2cc(C#Cc3ccc4ccc5cccc6ccc3c4c56)ccc2-c2ccc(N(c3ccccc3)c3ccccc3)cc21 | nm | 486 |
| COc1cc2c(cc1OC)C1=C3C(=O)N4C=Cc5cc(OC)c(OC)cc5C4=C3C(=O)N1C=C2 | nm | 597 |
| CCCC1(CCC)c2cc(C=C(C#Cc3ccccc3)C#Cc3ccccc3)ccc2-c2ccc(C=C(C#Cc3ccccc3)C#Cc3ccccc3)cc21 | nm | 473 |
| COc1cc2cc(OC)c(-c3ccc([N+](=O)[O-])cc3)cc2cc1-c1ccc([N+](=O)[O-])cc1 | nm | 544 |
| CCOC(=O)CSc1nc(-c2ccccc2)c(C)c(C#N)c1C#N | nm | 435 |
| COc1cc2c(cc1/C=C(\C#N)c1nc3ccccc3s1)c1ccccc1n2C | nm | 504 |
| CCCCOc1ccc(-c2oc3c(-c4ccc(OCCCC)cc4)c4n(c3c2-c2ccc(OCCCC)cc2)[B-](F)(F)[N+]2=Cc3c(-c5ccc(OCCCC)cc5)c5oc(-c6ccc(OCCCC)cc6)c(-c6ccc(OCCCC)cc6)c5n3[B-](F)(F)[N+]2=C4)cc1 | nm | 666 |
| c1ccc2c(c1)-c1c(ccc3ccccc13)C21c2cc(-c3ccc4ccc5cccc6ccc3c4c56)ccc2-c2ccc(-c3ccc4ccc5cccc6ccc3c4c56)cc21 | nm | 422 |
| CCCCCCCCCCCCc1sc(CCCCCCCCCCCC)c2c3ccsc3c3sccc3c12 | nm | 425 |
| OCC1O[C@@H](Cc2cc(O)cc(/C=C/c3ccc(O)c(O)c3)c2)[C@H](O)[C@@H](O)[C@@H]1O (some centres not stated) | nm | 373 |
| O=C1c2ccc3c4ccc5c6c(ccc(c7ccc(c2c37)C(=O)N1c1ccncc1)c64)C(=O)N(c1ccncc1)C5=O | nm | 576 |
| N#Cc1nc(N(Cc2ccccc2Br)Cc2ccccc2Br)c(C#N)nc1N(Cc1ccccc1Br)Cc1ccccc1Br | nm | 565 |
| Cc1ccc(C2=C3C=CC(Cl)=[N+]3[B-](F)(F)n3c(Cl)ccc32)cc1 | nm | 526 |
| CCCCC1=Cc2c3ccc4cccc5ccc(c6cc(-c7ccccc7)n(c26)P1(=O)c1ccccc1)c3c45 (configuration not stated) | nm | 458 |
| O=C1C=Cc2cc3ccccc3c(=O)n21 | nm | 410 |
| CCOC(CN1C(=O)C2=C(c3ccc(OC)c(OC)c3)N(CC(OCC)OCC)C(=O)C2=C1c1ccc(OC)c(OC)c1)OCC | nm | 538 |
| COc1ccc2c(c1)SCC1=C(c3ccccc3)C3=Nc4c(-c5ccccc5)c5c(n4[B-](F)(F)[N+]3=C12)-c1ccc(OC)cc1SC5 | nm | 730 |
| COc1cc(OC)c2cc(-c3ccc(-c4cc5c(OC)cc(OC)cc5oc4=O)cc3)c(=O)oc2c1 | nm | 446 |
| CCCCn1c2ccccc2c2ccc3c4cc(-c5ccc(C(F)(F)F)cc5)ccc4n(CCCC)c3c21 | nm | 402 |
| CCCCC1(CCCC)c2cc(C#Cc3ccc4ccc5cccc6ccc3c4c56)ccc2-c2ccc(C#Cc3ccc4ccc5cccc6ccc3c4c56)cc21 | nm | 439 |
| c1csc(-c2cnc(-c3cccs3)c3nonc23)c1 | nm | 611 |
| C[Si](C)(C)C#Cc1c2c(=O)c3ccccc3c2c(C#C[Si](C)(C)C)c2c(=O)c3ccccc3c12 | nm | 571 |
| O=C1c2ccc3c4c(-c5ccccc5)cc5c6c(ccc(c7c(-c8ccccc8)cc(c2c37)C(=O)N1C1CCCCC1)c64)C(=O)N(C1CCCCC1)C5=O | nm | 651 |
| CC1(C)c2ccccc2N(c2cccc(S(=O)(=O)c3cccc(N4c5ccccc5C(C)(C)c5ccccc54)c3)c2)c2ccccc21 | nm | 515 |
| CC(C)(C)c1ccc2oc3nc4oc5ccc(-n6c7ccccc7c(=O)c7ccccc76)cc5c4cc3c2c1 | nm | 409 |
| Cc1ccc(C2=CC(c3ccc(C)cc3)=[N+]3C2=Nc2c(-c4ccc(C)cc4)cc(-c4ccc(C)cc4)n2[B-]3(F)F)cc1 | nm | 697 |
| CC(C)(C)c1cccc2c1oc1nc3oc4ccc(-n5c6ccccc6c6ccccc65)cc4c3cc12 | nm | 419 |
| COc1ccc2cc(-c3cccc(-c4cc5ccc(OC)cc5oc4=O)c3)c(=O)oc2c1 | nm | 426 |

###

test: solvent given as SMILES; details: in C1CCOC1
emission maximum of 500 nm or higher: True. Under 500 nm: False.

| COMPOUND | DISCRETE_LABEL |
| --- | --- |
| COc1ccc2c3c(c4ccc(OC)cc4c2c1)=[N+]1C(=C(c2c(C)cc(C)cc2C)c2cc4c5ccc(OC)cc5c5cc(OC)ccc5c4n2[B-]1(F)F)C=3 | True |
| CCOc1cc(C=C2c3ccccc3-c3ccccc32)c(OCC)cc1C=C1c2ccccc2C=Cc2ccccc21 | False |
| O=C1c2ccc3c4c(Oc5ccccc5)cc5c6c(ccc(c7c(Oc8ccccc8)cc(c2c37)C(=O)N1c1ccc(O)cc1)c64)C(=O)N(c1ccc(O)cc1)C5=O | True |
| O=C1c2ccccc2C(=O)C1C1C(=O)c2c3ccccc3cc3cc4ccccc4c1c23 (stereo not drawn) | True |
| CN(C)c1ccc(-c2ccc(-c3cc(N4CCCCC4)c(C#N)c4c3-c3ccccc3CC4)s2)cc1 | True |
| O=C1CCCc2c1[nH]c1cc3c(cc21)OCO3 | False |

###

assay: solvent given as SMILES; conditions: in C1CCOC1

| MOL | UNIT_OF_MEASUREMENT | emission maximum |
| --- | --- | --- |
| C(=C\c1ccc(-c2nnc(-c3ccc(/C=C/c4ccc(-c5nc(-c6ccccc6)c(-c6ccccc6)[nH]5)cc4)cc3)o2)cc1)/c1ccc(-c2nc(-c3ccccc3)c(-c3ccccc3)[nH]2)cc1 | nm | 492 |
| CC(C)(C)c1ccc2c(c1)c1cc(C(C)(C)C)ccc1n2-c1ccc2oc3nc4oc5ccc(C(F)(F)F)cc5c4cc3c2c1 | nm | 455 |
| CCCCCOc1ccc2c(c1)c1ccc3cccc4c5cc(OC)cc6oc(=O)c2c(c65)c1c34 | nm | 454 |
| CN(C)c1ccc(C#Cc2ccccc2)cc1 | nm | 386 |
